B1: RIPK4 (parent)
chain: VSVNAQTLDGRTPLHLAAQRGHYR

- Variants of: B1
- assay notes: protein stability index of a GFP-peptide fusion (GPS, HEK-293T) (PSI 1-6); higher = more stable;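 also: lentivirally expressed fusions sorted by FACS into six bins by GFP to DsRed ratio, PSI derived from sequencing read proportions per bin multiplied by bin number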
- condition notes: c terminus: a fixed tail appended
Consider the following variants; for each one, report its protein stability index.
Answers are plain numbers.

INSERT INTO assay_data (mutation, reported) VALUES
  ('R20K', 3);

Fill in protein stability index for each of the 2 variants listed.
1. Y23W
2. A17L

Result string:
[3.07, 3.02]
